tested on: PBMC; assay: Antiproliferative activity in PMBC; format: functional, cell-based; conditions: Homo sapiens
Just a reminder that ties go to Not met: only IC50 strictly below 2000 nM counts as Met.

> print(dat)
                                    compound  label.class
 1  COc1cc2c(cc1-c1cnco1)C(=O)N(C)C1(CCCC1)N2      Not met
 2    COc1cc2[nH]c(=O)n(C)c(=O)c2cc1-c1cnco1      Not met
 3  COc1cc2c(cc1-c1cnco1)C(=O)N(C)C1(CCN(C(=O)N(C)OC)C1)N2 (centres undefined)          Met
 4  COc1cc2c(cc1-c1cnco1)C(=O)N(C)C1(CCN(C(=O)N(C)c3ccc(F)cc3F)C1)N2 (centres undefined)          Met
 5   COc1cc2c(cc1-c1cnco1)C(=O)N(C)C(C)(C)N2      Not met
 6  COc1cc2c(cc1-c1cnco1)C(=O)N(C)C1(CCN(C(=O)Nc3ccccc3)C1)N2 (centres undefined)      Not met
 7  COc1cc2c(cc1-c1cnco1)C(=O)N(C)C1(CCN(C(=O)N(C)c3ccccc3)C1)N2 (centres undefined)          Met
 8  COc1cc2c(cc1-c1cnco1)C(=O)N(C)C1(CCOCC1)N2      Not met
 9  COc1cc2c(cc1-c1cnco1)C(=O)N(C)C1(CCN(C(=O)OC(C)(C)C)C1)N2 (centres undefined)          Met
10  COc1cc2c(cc1-c1cnco1)C(=O)N(C)C1(CCN(C(=O)C(C)(C)C)C1)N2 (centres undefined)          Met
11  CCN(CC)C(=O)N1CCC2(C1)Nc1cc(OC)c(-c3cnco3)cc1C(=O)N2C (centres undefined)          Met
12  COC(=O)[C@H]1C[C@]2(CN1C(=O)OC(C)(C)C)Nc1cc(OC)c(-c3cnco3)cc1C(=O)N2C          Met
13  COc1cc2c(cc1-c1cnco1)C(=O)N(C)C1(CCN(C(=O)N(C(C)C)C(C)C)C1)N2 (centres undefined)          Met
14  CCNC(=O)N1CCC2(C1)Nc1cc(OC)c(-c3cnco3)cc1C(=O)N2C (centres undefined)      Not met
15  COc1cc2c(cc1-c1cnco1)C(=O)N(CCc1ccncc1)C(C)(C)N2      Not met
16  COc1cc2c(cc1-c1cnco1)C(=O)N(C)C(C)(/C=C/c1ccccc1)N2 (centres undefined)      Not met
17  COc1cc2c(cc1-c1cnco1)C(=O)N(C)C1(Cc3ccsc3C1)N2 (centres undefined)          Met
18  CCOC(=O)N1CCC2(C1)Nc1cc(OC)c(-c3cnco3)cc1C(=O)N2C (centres undefined)          Met
19  COc1cc2c(cc1-c1cnco1)C(=O)N(C)C1(CCN(C(=O)N3CCCCC3)C1)N2 (centres undefined)          Met
